Ref: PubChem BioAssay AID1159580

assay method text: chemical genetic growth profiling, strain panel (AID 1159580);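 note: tested at 20 µM; growth read once vehicle control cultures reached saturation at 30 °C; 1 = growth at the plate median or of vehicle wells; lower values mean less growth of the strain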
condition info: S. cerevisiae deletion strains, growth OD, locus YGL086W, strain mad1, active compounds read low
Screen size: about 5,500 compounds; about 2,000 (36%) were called active. Another 18% or so got no clear call; they are omitted. The list shows a part of the results.
normalized growth reference
measurement label: normalized growth

{"compound": "Clc1ccccc1C(c1ccccc1)(c1ccccc1)n1ccnc1", "measurement label": "normalized growth", "value": "0.0584 (active)"}
{"compound": "C[C@@H]1OC(O[C@H]2[C@H](OC(=O)[C@]34CCC(C)(C)CC3C3=CCC5[C@@]6(C)CC[C@H](OC7O[C@@H](C)[C@H](O[C@@H]8OC[C@@H](O)[C@H](O)[C@H]8O)[C@@H](O)[C@H]7O)C(C)(C)C6CC[C@@]5(C)[C@]3(C)CC4O)OC[C@H](O)[C@H]2O)[C@H](O)[C@H](O)[C@H]1O[C@@H]1O[C@H](CO)[C@@H](O)[C@H](O)[C@H]1O (stereo partly drawn)", "measurement label": "normalized growth", "value": "0.977 (inactive)"}
{"compound": "O=c1[nH]cc(F)c(=O)[nH]1", "measurement label": "normalized growth", "value": "0.743 (active)"}
{"compound": "C/C=C(/C)C(=O)O[C@@H]1[C@H](OC(C)=O)[C@@]2(CO)C(CC1(C)C)C1=CCC3[C@@]4(C)CC[C@H](O[C@@H]5O[C@H](C(=O)O)[C@@H](O[C@@H]6O[C@H](CO)[C@@H](O)[C@H](O)[C@H]6O)[C@H](O)[C@H]5O[C@@H]5O[C@H](CO)[C@@H](O)[C@H](O)[C@H]5O)[C@](C)(CO)C4CC[C@@]3(C)[C@]1(C)C[C@H]2O (stereo partly drawn)", "measurement label": "normalized growth", "value": "1.03 (inactive)"}
{"compound": "Nc1ccc(S(=O)(=O)c2ccc(N)cc2)cc1", "measurement label": "normalized growth", "value": "1 (inactive)"}
{"compound": "COC(=O)C[C@H]1C(C)(C)C(=O)[C@@H]2CC3C4=CC(=O)O[C@@H](c5ccoc5)[C@]4(C)CCC3[C@@]1(C)C2=O (stereo partly drawn)", "measurement label": "normalized growth", "value": "0.975 (inactive)"}
{"compound": "CC1(C)CC[C@@]2(C(=O)O)C(C1)C1=CCC3[C@@]4(C)CC[C@H](O)C(C)(C)C4CC[C@@]3(C)[C@]1(C)C[C@@H]2O (stereo partly drawn)", "measurement label": "normalized growth", "value": "1.22 [resistant] (active)"}
{"compound": "O=C(O)/C=C1\\CCCc2ccccc2C1O (stereo not drawn)", "measurement label": "normalized growth", "value": "0.991 (inactive)"}
{"compound": "O=C(COc1ccc(Cl)cc1)N1CCN(Cc2ccc3c(c2)OCO3)CC1", "measurement label": "normalized growth", "value": "0.973 (inactive)"}
{"compound": "C[C@H]1[C@H](C)CC[C@]2(CO)CC[C@]3(C)C(=CCC4[C@@]5(C)CC[C@H](O)C(C)(C)C5CC[C@]43C)[C@H]12 (stereo partly drawn)", "measurement label": "normalized growth", "value": "1.01 (inactive)"}
{"compound": "COC(=O)C[C@H]1C(C)(C)C2(O)OC34CC2C(=O)[C@]1(C)C3CC[C@]1(C)C4=CC(=O)O[C@H]1c1ccoc1 (stereo partly drawn)", "measurement label": "normalized growth", "value": "0.99 (inactive)"}
{"compound": "CC(C)=CCCC1(C)C=Cc2c(O)c3c(c(CC=C(C)C)c2O1)OC12C(=CC4CC1C(C)(C)OC2(C/C=C(/C)C(=O)O)C4O)C3=O (stereo not drawn)", "measurement label": "normalized growth", "value": "0.925 (active)"}
{"compound": "C[C@@H]1CC[C@]2(C(=O)O)CC[C@]3(C)C(=CCC4[C@@]5(C)CC[C@H](O)C(C)(C)C5CC[C@]43C)C2[C@H]1C (stereo partly drawn)", "measurement label": "normalized growth", "value": "1.28 [resistant] (active)"}

###

normalized growth reference
assay method text: chemical genetic growth profiling, strain panel (AID 1159580)
condition info: S. cerevisiae deletion strains, growth OD, locus YNL153C, strain GIM3, active compounds read low
Screen size: about 5,500 compounds; about 2,000 (36%) were called active. Not shown: some 18% with an inconclusive outcome. The list shows a part of the results.

{"molecule": "Fc1ccc(C(c2ccccc2)(c2ccccc2F)n2ccnc2)cc1 (stereo not given)", "normalized growth": 0.0592}
{"molecule": "CC(C)=CCCC1(C)C=Cc2c(O)c3c(c(CC=C(C)C)c2O1)OC12C(CC4CC1C(C)(C)OC2(C/C=C(/C)C(=O)O)C4O)C3=O (stereo not given)", "normalized growth": 1.04}
{"molecule": "NC(=S)COc1ccccc1Cl", "normalized growth": 0.971}
{"molecule": "COc1ccc(C(=O)CN2CCN(c3cc(C)nc4ccccc34)CC2)cc1", "normalized growth": 1.01}
{"molecule": "CC(=O)O[C@@H]1CC[C@@]2(C)C(CC[C@]3(C)C2CC=C2C4CC(C)(C)CC[C@]4(C(=O)O)CC[C@]23C)C1(C)C (stereo not given in full)", "normalized growth": 0.988}

###

normalized growth reference
assay method text: chemical genetic growth profiling, strain panel (AID 1159580);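 note: tested at 20 µM; growth read once vehicle control cultures reached saturation at 30 °C; 1 = growth at the plate median or of vehicle wells; lower values mean less growth of the strain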
condition info: S. cerevisiae deletion strains, growth OD, locus YNL183C, strain NPR1, active compounds read low
Hit rate of the full screen: of about 5,500 compounds, about 2,000 (36%) were called active. Another 18% or so got no clear call; they are omitted. Some of the results follow.
measurement label: normalized growth

{"compound": "CC(=O)O[C@@H]1CC[C@@]2(C)C(CC[C@]3(C)C2CC=C2C4CC(C)(C)CC[C@]4(C(=O)O)CC[C@]23C)C1(C)C (some centres not stated)", "value": "0.914 (inactive)"}
{"compound": "C[C@@H]1OC(O[C@H]2[C@H](O)[C@@H](O)[C@H](OC[C@H]3O[C@@H](OC(=O)[C@]45CCC(C)(C)CC4C4=CCC6[C@@]7(C)CC[C@H](OC8OC[C@H](O)[C@H](O)[C@H]8OC8O[C@@H](C)[C@H](O)[C@@H](O)[C@H]8O)[C@@](C)(CO)C7CC[C@@]6(C)[C@]4(C)CC5)[C@H](O)[C@@H](O)[C@@H]3O)O[C@@H]2CO)[C@H](O)[C@H](O)[C@H]1O (some centres not stated)", "value": "0.983 (inactive)"}

###

assay method text: chemical genetic growth profiling, strain panel (AID 1159580);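 note: tested at 20 µM; growth read once vehicle control cultures reached saturation at 30 °C; 1 = growth at the plate median or of vehicle wells; lower values mean less growth of the strain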
condition info: S. cerevisiae deletion strains, growth OD, locus YJR066W, strain TOR1, active compounds read low
Among all 5,500 compounds or so, about 2,000 (36%) were called active. Not shown: some 18% with an inconclusive outcome. Some of the results follow.

{"compound": "C#C[C@]1(O)CCC2C3CCC4=CC(=O)CC[C@@H]4C3CC[C@@]21C (stereo partly drawn)", "normalized growth": 0.909}
{"compound": "CCCCCCCCCCCCCCCCC(C(=O)O)C(O)(CC(=O)O)C(=O)O (stereo not drawn)", "normalized growth": 0.566}
{"compound": "O=C(NCCc1ccncc1)c1ccc(Cl)c(Cl)c1", "normalized growth": 1.04}
{"compound": "CCOC(=O)c1cc(CC)sc1NC(=O)c1ccc([N+](=O)[O-])o1", "normalized growth": 0.212}
{"compound": "CC(C)CC(N(C)C)C1(c2ccc(Cl)cc2)CCC1 (stereo not drawn)", "normalized growth": 0.961}
{"compound": "C[C@]12CCC(=O)C=C1CCC1C2[C@@H](O)C[C@@]2(C)C1CC[C@]2(O)C(=O)CO (stereo partly drawn)", "normalized growth": 0.922}
{"compound": "O=S(=O)(NC(=S)Nc1ccc(Cl)c(Cl)c1)c1ccccc1", "normalized growth": 1.13}
{"compound": "O=C(Nc1ccc(Cl)cc1)SCc1c(Cl)cccc1Cl", "normalized growth": 0.788}
{"compound": "S=C(NCc1ccccc1)Nc1ccc(Cl)c(Cl)c1", "normalized growth": 0.845}
{"compound": "O=P(O)(O)C(O)(Cc1cccnc1)P(=O)(O)O", "normalized growth": 0.936}
{"compound": "CC(C)(Oc1ccc(CCNC(=O)c2ccc(Cl)cc2)cc1)C(=O)O", "normalized growth": 0.967}
{"compound": "CCCCCCCCCCCC[C@H](C(=O)O)[C@@H](C)C(=O)O", "normalized growth": 0.884}
{"compound": "O=C(CSCc1csc2ccccc12)Nc1ccc(F)c(Cl)c1", "normalized growth": 0.889}

###

assay method text: chemical genetic growth profiling, strain panel (AID 1159580);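 note: tested at 20 µM; growth read once vehicle control cultures reached saturation at 30 °C; 1 = growth at the plate median or of vehicle wells; lower values mean less growth of the strain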
condition info: S. cerevisiae deletion strains, growth OD, locus YKL085W, strain MDH1, active compounds read low
The campaign covered roughly 5,500 compounds. About 2,000 (36%) were called active. Another 18% or so got no clear call; they are omitted. The list shows a part of the results.
normalized growth reference
measurement label: normalized growth

{"compound": "Cc1ccc(-c2cc(C(F)(F)F)nn2-c2ccc(S(N)(=O)=O)cc2)cc1", "value": "1 (inactive)"}
{"compound": "COC1=C[C@@H]2[C@@H]3Cc4ccc(OC)c(O)c4[C@]2(CCN3C)CC1=O", "value": "0.979 (inactive)"}
{"compound": "CO[C@@]12[C@@H]3NC3CN1C1=C(C(=O)C(N)=C(C)C1=O)[C@@H]2COC(N)=O (stereo partly specified)", "value": "0.983 (inactive)"}
{"compound": "CNCc1ccccc1", "value": "0.976 (inactive)"}
{"compound": "CC(=O)NCc1c(I)c(NC(C)=O)c(I)c(C(=O)O)c1I", "value": "1.01 (inactive)"}
{"compound": "Cc1cc(O)c2c(c1)Cc1cccc(O)c1C2=O", "value": "1.03 (inactive)"}
{"compound": "N=C(N)c1ccc(OCCCCCOc2ccc(C(=N)N)cc2)cc1", "value": "0.936 (inactive)"}
{"compound": "NC(Cc1c[nH]c2ccccc12)C(=O)O (stereo unspecified)", "value": "1.02 (inactive)"}
{"compound": "COC(=O)C[C@H]1C(C)(C)C(=O)[C@@H]2CC3C4=CC(=O)O[C@@H](c5ccoc5)[C@]4(C)CCC3[C@@]1(C)C2=O (stereo partly specified)", "value": "0.986 (inactive)"}
{"compound": "O=c1[nH]cc(F)c(=O)[nH]1", "value": "0.965 (inactive)"}
{"compound": "CC(C)(C#N)O[C@@H]1O[C@H](CO)[C@@H](O)[C@H](O)[C@H]1O", "value": "1.01 (inactive)"}
